Measured values drawn from PubChem BioAssay AID1421 for this set.

Target: Prostaglandin E2 receptor EP2 subtype (Homo sapiens)
Test: EP2 receptor modulators, dose response, cell-based, human EP2, PGE2 EC50 shift (AID 1421)
Conditions: EP2-expressing cells, PGE2 EC50 shift by compound; measured here: PGE2 EC50 at 6.7 uM compound
property: PGE2 EC50 with compound (nM)
One number for each entry, in nM.

[
  {
    "compound": "O=S(=O)(c1ccccc1)c1nc(-c2ccco2)oc1N1CCCCCC1",
    "PGE2 EC50 with compound / nM": 1.21
  },
  {
    "compound": "Cc1cccc(Cn2c(=O)n(Cc3ccco3)c(=O)c3ccccc32)c1",
    "PGE2 EC50 with compound / nM": 1.13
  },
  {
    "compound": "Fc1ccc(-c2cc(-c3ccccc3)nc(-n3cccn3)n2)cc1",
    "PGE2 EC50 with compound / nM": 1.63
  },
  {
    "compound": "CCCCOc1ccccc1NC(=O)c1scc2c1OCCO2",
    "PGE2 EC50 with compound / nM": 0.32
  },
  {
    "compound": "CSc1nc(Sc2ccccc2)c2ccccc2n1",
    "PGE2 EC50 with compound / nM": 1.6
  }
]

// below: PGE2 EC50 with compound requested for another compound
Query string: Need PGE2 EC50 with compound of CCOP(=O)(c1ccccc1)c1nc(-c2ccccc2Cl)oc1N1CCCCC1 (stereo unspecified) , thanks.
Result string: 1.02

----------
For each record, write down the corresponding PGE2 EC50 with compound.
Target: Prostaglandin E2 receptor EP2 subtype (Homo sapiens) (UniProt P43116)
Sequence (P43116 whole entry, looked up): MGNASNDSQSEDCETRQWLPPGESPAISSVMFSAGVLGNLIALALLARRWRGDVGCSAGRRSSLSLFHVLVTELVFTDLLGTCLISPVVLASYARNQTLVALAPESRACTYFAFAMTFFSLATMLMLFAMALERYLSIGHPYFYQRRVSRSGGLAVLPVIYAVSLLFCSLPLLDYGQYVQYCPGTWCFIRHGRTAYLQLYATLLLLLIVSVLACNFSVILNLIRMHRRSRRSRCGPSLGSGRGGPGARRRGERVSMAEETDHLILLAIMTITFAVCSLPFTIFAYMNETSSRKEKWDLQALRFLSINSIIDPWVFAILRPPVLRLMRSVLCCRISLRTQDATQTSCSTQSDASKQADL
Assay: EP2 receptor modulators, dose response, cell-based, human EP2, PGE2 EC50 shift (AID 1421)
Conditions: EP2-expressing cells, PGE2 EC50 shift by compound; measured here: PGE2 EC50 at 6.7 uM compound
Answers are plain numbers, in nM.

Here's what some known entries look like.
[
  {
    "smiles.structure": "COC(=O)c1sccc1NC(=O)c1cc2c(s1)CCCC2",
    "system": "Prostaglandin E2 receptor EP2 subtype (Homo sapiens) (UniProt P43116)",
    "unit.string": "nM",
    "PGE2 EC50 with compound": 1.01
  },
  {
    "smiles.structure": "C=CCNC(=S)NNc1nc(Nc2ccccc2)nc(N2CCCCC2)n1",
    "system": "Prostaglandin E2 receptor EP2 subtype (Homo sapiens) (UniProt P43116)",
    "unit.string": "nM",
    "PGE2 EC50 with compound": 1.42
  },
  {
    "smiles.structure": "CCCSc1nc(N2CCCC2)c2c(c1C#N)CC(C)(C)OC2",
    "system": "Prostaglandin E2 receptor EP2 subtype (Homo sapiens) (UniProt P43116)",
    "unit.string": "nM",
    "PGE2 EC50 with compound": 1.15
  }
]

Look up PGE2 EC50 with compound for the entries below, preserving their order.
1. CC(C)c1cc(=O)oc2c3c4c(cc12)CCCN4CCC3
2. Cc1cccc(/C=C/c2nc3ccccc3c(=O)n2Cc2ccccc2)c1
3. NCCc1c(-c2ccccc2)n(-c2ccccc2)c2ccccc12

Result string:
1: 1.15; 2: 2.67; 3: 1.25

----------
Biological target: Prostaglandin E2 receptor EP2 subtype (Homo sapiens) (UniProt P43116)
Experiment: EP2 receptor modulators, dose response, cell-based, human EP2, PGE2 EC50 shift (AID 1421)
Settings: EP2-expressing cells, PGE2 EC50 shift by compound; measured here: PGE2 EC50 at 6.7 uM compound
property: PGE2 EC50 with compound
Please don't drop the unit; write it after the number.

Here's what some known entries look like.
[
  {
    "compound": "CSc1ccccc1NC(=O)COc1ccc(Cl)cc1C",
    "system": "Prostaglandin E2 receptor EP2 subtype (Homo sapiens) (UniProt P43116)",
    "PGE2 EC50 with compound": "1.06 nM"
  },
  {
    "compound": "O=C(N/N=C/c1ccc[nH]1)c1ccccc1OCc1ccccc1Cl",
    "system": "Prostaglandin E2 receptor EP2 subtype (Homo sapiens) (UniProt P43116)",
    "PGE2 EC50 with compound": "2.65 nM"
  },
  {
    "compound": "COc1ccc(C2CC(C(F)(F)F)n3nc(C(N)=O)c(Cl)c3N2)cc1OC (stereo not drawn)",
    "system": "Prostaglandin E2 receptor EP2 subtype (Homo sapiens) (UniProt P43116)",
    "PGE2 EC50 with compound": "0.71 nM"
  },
  {
    "compound": "CCSc1cc(N2CCOCC2)nc(-c2ccc(Cl)cc2)n1",
    "system": "Prostaglandin E2 receptor EP2 subtype (Homo sapiens) (UniProt P43116)",
    "PGE2 EC50 with compound": "0.69 nM"
  }
]

Look up PGE2 EC50 with compound for the entries below, preserving their order.
1. Cc1cccc(-n2c(CCc3ccccc3)nnc2SCC(=O)c2ccccc2)c1
2. Cc1cc([N+](=O)[O-])c(C)c(Br)c1C
3. O=S(=O)(c1ccc(F)c(Cl)c1)N1CCCC1

Result string:
1.16 nM
1.11 nM
1.02 nM

----------
Target: Prostaglandin E2 receptor EP2 subtype (Homo sapiens) (UniProt P43116)
Assay: EP2 receptor modulators, dose response, cell-based, human EP2, PGE2 EC50 shift (AID 1421)
Details: EP2-expressing cells, PGE2 EC50 shift by compound; measured here: PGE2 EC50 at 6.7 uM compound
property: PGE2 EC50 with compound (nM)
Give bare numbers, in nM.

Here's what some known entries look like.
[
  {
    "molecule": "Cc1ccc(Cn2c(Cc3ccccc3)nc3ccccc32)cc1",
    "unit.string": "nM",
    "endpoint.value": 2.5
  },
  {
    "molecule": "Cc1cccc(C)c1OC(=O)C(c1ccccc1)c1ccccc1",
    "unit.string": "nM",
    "endpoint.value": 2.47
  },
  {
    "molecule": "O=C(COC(=O)c1ccc(S(=O)(=O)N2CCCC2)cc1)Nc1ccc(F)cc1F",
    "unit.string": "nM",
    "endpoint.value": 1.73
  }
]

Look up PGE2 EC50 with compound for the entries below, preserving their order.
1. CCCc1cc(-c2n[nH]c(=S)n2C(C)c2ccccc2)cs1 (configuration not stated)
2. c1ccc(-c2ccccc2-c2nc(-c3cccnc3)no2)cc1

Result string:
1. 1.2
2. 2.82

----------
Target: UniProt:P43116
Assay: EP2 receptor modulators, dose response, cell-based, human EP2, PGE2 EC50 shift (AID 1421)
Details: EP2-expressing cells, PGE2 EC50 shift by compound; measured here: PGE2 EC50 at 6.7 uM compound
Please note: MET applies when PGE2 EC50 with compound is 0.9 nM or greater, and NOT MET applies otherwise.

[
  {
    "molecule": "O=C(CSc1nnc(-c2cc3ccccc3cc2O)n1Cc1ccco1)c1ccc(F)cc1",
    "label.class": "MET"
  },
  {
    "molecule": "O=C(CSc1nnc(Cc2ccccc2)n1Cc1ccco1)NC12CC3CC(CC(C3)C1)C2",
    "label.class": "MET"
  },
  {
    "molecule": "Cc1cc(C)n(-c2nc3ccccc3nc2Nc2ccc3[nH]c(=O)[nH]c3c2)n1",
    "label.class": "NOT MET"
  },
  {
    "molecule": "Cc1ccc(C(=O)c2cnc3ccccc3c2-c2ccccc2)cc1",
    "label.class": "NOT MET"
  },
  {
    "molecule": "O=C(Nc1ccccc1Sc1ccccc1)c1ccc(F)cc1",
    "label.class": "MET"
  },
  {
    "molecule": "CC1CCN(c2ccccc2NC(=O)c2ccc(C#N)cc2F)CC1",
    "label.class": "MET"
  },
  {
    "molecule": "O=C(NNc1ccc([N+](=O)[O-])cc1[N+](=O)[O-])C1C2CCCCC21 (stereo unspecified)",
    "label.class": "NOT MET"
  },
  {
    "molecule": "Cc1ccc(S(=O)(=O)Nc2ccc(Cl)cc2C(=O)c2ccc(F)cc2)cc1",
    "label.class": "MET"
  }
]

Query string: Reported PGE2 EC50 with compound at or above 0.9 nM? `COc1ccc(Oc2cc(C(F)(F)F)nc(N(C)C)n2)cc1`
Result string: NOT MET

Query string: Reported PGE2 EC50 with compound at or above 0.9 nM? `CC(C)Cc1nc2sc3c(=O)[nH]cnc3c2c2c1CCC2`
Result string: MET

----------
Biological target: Prostaglandin E2 receptor EP2 subtype (Homo sapiens) (UniProt P43116)
Experiment: EP2 receptor modulators, dose response, cell-based, human EP2, PGE2 EC50 shift (AID 1421)
Settings: EP2-expressing cells, PGE2 EC50 shift by compound; measured here: PGE2 EC50 at 6.7 uM compound
For each record, write down the corresponding PGE2 EC50 with compound.
One number for each entry, in nM.

Here's what some known entries look like.
[
  {
    "molecule": "c1ccc(Nc2nc(N3CCNCC3)nc(N3CCOCC3)n2)cc1",
    "PGE2 EC50 with compound, nM": 1.46
  },
  {
    "molecule": "Cc1ccc2c(c1)-c1nc3ccccc3cc1C2=NC1CCCCC1",
    "PGE2 EC50 with compound, nM": 1.41
  }
]

Look up PGE2 EC50 with compound for the entries below, preserving their order.
1. CCCn1c(=O)[nH]c(=O)c2c1nc(-c1ccccc1OC(F)F)n2CCOC
2. CN(C)c1oc(-c2ccccc2Cl)nc1P(=O)(c1ccccc1)c1ccccc1
3. O=C(Cc1ccc(Br)cc1)Nc1ccccc1Sc1ccccc1
4. CC1(C)Cc2c(C#N)c(N3CCCC3)nc(-c3ccco3)c2CO1

Result string:
1. 1.08
2. 1.17
3. 1.2
4. 2.33

Look up PGE2 EC50 with compound for the entries below, preserving their order.
1. N#Cc1c(-c2ccco2)nc(SCC(=O)Nc2cccc(Cl)c2)[nH]c1=O
2. CCc1cc2cc3c(cc2nc1SCC(=O)OC(C)C)OCO3
3. Cc1sc(NC(=O)c2ccccc2F)c(CN2CCCCC2)c1C
4. O=C(c1cc2sccc2n1Cc1ccccc1)N1CCCc2ccccc21
5. NC(=NCCC[C@H](N)C(=O)O)N[N+](=O)[O-]

Result string:
1. 1.15
2. 0.7
3. 1.09
4. 1.3
5. 1.93

Look up PGE2 EC50 with compound for the entries below, preserving their order.
1. Cc1ccc(-c2cc3ccccc3nc2N2CCOCC2)cc1
2. Cc1ccc(NCc2ccccc2OCc2ccccc2F)cc1
3. O=c1c2ccccc2c(-c2ccccc2)nn1Cc1c(Cl)cccc1Cl
4. CCC1Oc2ccccc2N(Cc2ccccc2C)C1=O (centres undefined)
5. Cc1cc(-c2sccc2C)nc(-n2cccc2)n1
6. CCOc1nc(C)cc(C)c1S(=O)(=O)c1ccc(Cl)cc1

Result string:
1: 1.45; 2: 0.86; 3: 0.84; 4: 2.7; 5: 2.5; 6: 1.56
